measurement-target: NanoLuc:EGFR fusion on cells (UniProt P00533 25-1210)
measure: Kd (nM)
Entry rule: numbers only, all in nM.

Entry under test: CBT-labeled EGF (epidermal growth factor labeled with DY605-PEG-CBT on the N-terminal cysteine) (ligand, DY605-PEG-CBT on the N-terminal cysteine (>=95% efficiency)) CDNNSDSECPLSHDGYCLHDGVCMYIEALDKYACNCVVGYIGERCQYRDLKWWELR . Its Kd was 0.16
